Values from PubChem BioAssay (EPA / NIEHS)

- Experimental System: Nuclear receptor subfamily 1 group I member 2 (Mus musculus) (UniProt O54915)
- Sequence (O54915 whole entry, looked up): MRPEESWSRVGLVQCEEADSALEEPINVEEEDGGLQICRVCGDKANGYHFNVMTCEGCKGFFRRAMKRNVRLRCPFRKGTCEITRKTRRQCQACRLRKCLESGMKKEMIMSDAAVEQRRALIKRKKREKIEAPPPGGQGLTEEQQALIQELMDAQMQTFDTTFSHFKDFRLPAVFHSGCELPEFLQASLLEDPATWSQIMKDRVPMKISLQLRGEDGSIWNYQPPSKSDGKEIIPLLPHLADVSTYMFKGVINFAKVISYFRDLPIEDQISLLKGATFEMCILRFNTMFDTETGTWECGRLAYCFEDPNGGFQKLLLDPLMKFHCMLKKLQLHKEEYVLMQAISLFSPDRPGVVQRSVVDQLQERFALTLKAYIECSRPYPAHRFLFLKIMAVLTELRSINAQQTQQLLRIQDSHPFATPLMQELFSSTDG
- Measurement Description: ATG_mPXR_XSP2: Attagene TRANS-FACTORIAL Multi-Species (XSP1) HepG2 Assay for mouse Pregnane X Receptor (PXR) (AID 2283831)
Records with an inconclusive call do not appear. Active and inactive are the calls of the source. The calls were made as follows: active = hit-call score of the fitted dose curve at least 0.9, where 1 is the maximum; inconclusive = response in the unintended direction; inactive = score below 0.9.
Answer with one of the outcomes 1.0 = active, 0.0 = inactive

Query: Dear all, I need the recorded test outcome for C=CCOC(Cn1ccnc1)c1ccc(Cl)cc1Cl (stereo unspecified) , thank you.
Response: 1.0

Query: One more compound: CC(=O)S[C@@H]1CC2=CC(=O)CC[C@]2(C)[C@H]2CC[C@@]3(C)[C@@H](CC[C@@]34CCC(=O)O4)[C@H]12
Response: 1.0

Query: One more compound: N[C@@H](Cc1cc(I)c(Oc2ccc(O)c(I)c2)c(I)c1)C(=O)O
Response: 1.0

Query: One more compound: C#C[C@]1(O)CC[C@H]2[C@@H]3CCC4=CC(=O)CC[C@@H]4[C@H]3CC[C@@]21CC
Response: 0.0

Query: One more compound: Oc1ccc(C(c2ccc(O)cc2)C(Cl)(Cl)Cl)cc1
Response: 0.0

Query: One more compound: CCCCC(CC)CN1C(=O)C2C3C=CC(C3)C2C1=O (stereo unspecified)
Response: 1.0

====

- Read-out: Transforming Growth Factor (TGFA), TGFA (gene 7039)
- Measurement Description: LTEA_HepaRG_TGFA: Life Technologies and Expression Analysis (LTEA) Assay for Transforming Growth Factor (TGFA) using HepaRG (AID 2283532)
- Condition Set: mRNA level, 48 h; actives raise or lower the signal
Calls of active or inactive are those of the source. The calls were made as follows: active = hit-call score of the fitted dose curve at least 0.9, where 1 is the maximum; inactive = score below 0.9.
Answer with one of the outcomes active, inactive

Query: Dear all, I need the recorded test outcome for CCCCC(CC)COC(=O)c1ccccc1C(=O)O (stereo unspecified) , thank you.
Response: inactive

Query: One more molecule: c1ccc2[nH]c(-c3cscn3)nc2c1
Response: inactive

Query: One more molecule: Cc1nn(C)c(Oc2ccccc2)c1C=NOCc1ccc(C(=O)OC(C)(C)C)cc1
Response: active

Query: One more molecule: CN(C)C(=O)Nc1ccc(Cl)c(Cl)c1
Response: inactive

Query: One more molecule: CCCOC(=O)c1ccc(C(=O)OCCC)nc1
Response: inactive

Query: One more molecule: CCCN(CCC)c1c([N+](=O)[O-])cc(C(F)(F)F)c(N)c1[N+](=O)[O-]
Response: inactive

====

- Measurement Description: STM_H9_OrnithineISnorm_perc: Stemina devTOX quickPredict H9 human embryonic stem cell (hESC)-based Assay for Ornithine (ORN) Metabolite Biomarker, Normalized (AID 2283712);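 also: ornithine released into spent medium during last day measured by mass spectrometry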
Calls of active or inactive are those of the source. The calls were made as follows: active = hit-call score of the fitted dose curve at least 0.9, where 1 is the maximum; inactive = score below 0.9.
Answer with one of the outcomes 1.0 for active, 0.0 for inactive

Query: Dear all, I need the recorded test outcome for CCCCOC(=O)C(C)Oc1ccc(Oc2ccc(C(F)(F)F)cn2)cc1 (configuration not stated) , thank you.
Response: 0.0

Query: One more compound: CCNc1nc(N)nc(Cl)n1
Response: 0.0

Query: One more compound: COC(=O)CSc1cc(N=c2sc(=O)n3n2CCCC3)c(F)cc1Cl
Response: 1.0

Query: One more compound: CCN(Cc1c(F)cccc1Cl)c1c([N+](=O)[O-])cc(C(F)(F)F)cc1[N+](=O)[O-]
Response: 1.0

Query: One more compound: S=C([S-])NCCNC(=S)[S-].[Mn+2]
Response: 1.0

Query: One more compound: CCCN(CCC)c1c([N+](=O)[O-])cc(C(F)(F)F)c(N)c1[N+](=O)[O-]
Response: 0.0

Query: One more compound: COC(=O)c1ccccc1C(=O)O
Response: 1.0

Query: One more compound: COC(=O)c1ccc(I)cc1S(=O)(=O)NC(=O)Nc1nc(C)nc(OC)n1
Response: 0.0

Query: One more compound: CCCCOC(=O)[C@@H](C)Oc1ccc(Oc2ccc(C(F)(F)F)cn2)cc1
Response: 1.0

Query: One more compound: Cc1nn(C)c(Oc2ccccc2)c1C=NOCc1ccc(C(=O)OC(C)(C)C)cc1
Response: 1.0

Query: One more compound: O=C(O)C1(C(=O)Nc2ccc(Cl)cc2Cl)CC1
Response: 0.0

Query: One more compound: CC(C)(C)[C@@H](O)[C@@H](Cc1ccc(Cl)cc1)n1cncn1
Response: 0.0
